Taken from patent US11339161B2.

molecular target: CDK5/p35 (Homo sapiens, UniProt Q00535); assay: Z'-LYTE SelectScreen biochemical kinase assay CDK5/p35; details: 10 μmolar compound concentration; ATP at Km app; read-out: CDK5/p35 inhibition
Sequence (Q00535 whole entry): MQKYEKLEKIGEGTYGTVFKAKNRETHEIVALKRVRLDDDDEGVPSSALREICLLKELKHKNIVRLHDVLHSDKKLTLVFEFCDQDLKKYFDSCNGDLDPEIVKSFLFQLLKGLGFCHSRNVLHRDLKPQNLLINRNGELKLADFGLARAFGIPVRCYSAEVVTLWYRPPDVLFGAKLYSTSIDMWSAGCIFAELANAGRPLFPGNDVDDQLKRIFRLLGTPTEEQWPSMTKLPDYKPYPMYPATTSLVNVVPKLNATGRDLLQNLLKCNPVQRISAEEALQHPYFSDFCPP
Sequence (Q15078 whole entry partner): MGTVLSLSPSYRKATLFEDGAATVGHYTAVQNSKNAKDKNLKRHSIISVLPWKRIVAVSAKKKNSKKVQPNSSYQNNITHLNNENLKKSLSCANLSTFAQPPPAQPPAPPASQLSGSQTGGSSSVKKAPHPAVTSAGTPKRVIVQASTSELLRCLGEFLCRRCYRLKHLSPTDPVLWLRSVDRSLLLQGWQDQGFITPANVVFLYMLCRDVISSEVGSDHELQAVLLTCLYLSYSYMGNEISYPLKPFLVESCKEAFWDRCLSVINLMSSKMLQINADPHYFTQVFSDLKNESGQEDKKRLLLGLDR
Observation type: inhibition at 10 µM

Record request: inhibition at 10 µM value, item CC1(C)C(=O)Nc2ccc(Nc3nc4c(-c5cccc(F)c5)cccn4n3)cc21 [Cpd. 263 in WO09155551, reference compound]
> 80%

What measured inhibition at 10 µM goes with CCCCn1ncc2c1CCC(Nc1nc3c(-c4ccc(F)cc4C)cccn3n1)C2 (centres unmarked) ?
< 40%

Consider the compound Cc1cc(F)ccc1-c1cccn2nc(NC3CCc4cnn(C)c4C3)nc12 (centres unmarked) and give its measured inhibition at 10 µM.
40 to 80%

So what's the measured inhibition at 10 µM for this one? CCCn1ncc2c1CCC(Nc1nc3c(-c4ccc(F)cc4C)cccn3n1)C2 (centres unmarked)
< 40%

Looking for the measured inhibition at 10 µM of CCc1nn(C)c2c1CCC(Nc1nc3c(-c4ccc(F)cc4C)cccn3n1)C2 (centres unmarked) , can you help?
< 40%

Quick check: inhibition at 10 µM of Cc1cc(F)ccc1-c1cccn2nc(NC3CCc4c(cnn4C)C3)nc12 (centres unmarked) ?
40 to 80%

Bench note: what inhibition at 10 µM did CC1(C)NC(=O)c2ccc(Nc3nc4c(-c5cccc(F)c5)cccn4n3)cc21 [Cpd. 302 in WO09155551, reference compound] show?
> 80%

Query (compound): CCn1ncc2c1CCC(Nc1nc3c(-c4cccnc4)cccn3n1)C2 (centres unmarked) ; field requested: inhibition at 10 µM
40 to 80%
